Recorded values, source the supplement of paper PMC10126150.

Recorded switch fluorescence ratio for the following sequences
# System: ATP;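 note: ATP exposure 15 min at 22 °C before imaging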
# experiment.notes: switch fluorescence ratio, 500 uM ATP over buffer (Cy3 cluster intensity, sum of 5 cycles each) (fold (ratio)); higher = stronger signal-on switching upon ATP binding; sequences stand for … in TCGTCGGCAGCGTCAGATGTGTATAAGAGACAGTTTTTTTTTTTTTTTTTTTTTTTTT…TC
# test.parameters: aptamer strand: ATP DNA aptamer (quencher-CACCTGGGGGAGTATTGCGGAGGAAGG + anchor), 100 nM annealed; ATP concentration: 500 uM

{"sequence.record": "CGCGCGGATT", "switch fluorescence ratio": 1.04}
{"sequence.record": "TTTCGAGTCA", "switch fluorescence ratio": 1}
{"sequence.record": "GCTGGTGTTG", "switch fluorescence ratio": 1}
{"sequence.record": "TGGGGGACAG", "switch fluorescence ratio": 1}
{"sequence.record": "TTATTGAGTA", "switch fluorescence ratio": 1.01}
{"sequence.record": "CTAACCATCT", "switch fluorescence ratio": 1.03}
{"sequence.record": "GAAGTAAGAG", "switch fluorescence ratio": 1.11}
{"sequence.record": "CCGCCATTGG", "switch fluorescence ratio": 1.62}
{"sequence.record": "TGTAGGTGGT", "switch fluorescence ratio": 0.978}
{"sequence.record": "TGTGGTTGTT", "switch fluorescence ratio": 1.02}
{"sequence.record": "ATAGGGAGAG", "switch fluorescence ratio": 0.987}
{"sequence.record": "CGGATTCGGA", "switch fluorescence ratio": 1.01}
{"sequence.record": "AGGTGGGGTT", "switch fluorescence ratio": 0.996}
{"sequence.record": "TGGTGCTCAT", "switch fluorescence ratio": 0.994}
{"sequence.record": "AATTTTTCTG", "switch fluorescence ratio": 0.987}
{"sequence.record": "TAGATTCAGG", "switch fluorescence ratio": 1}
{"sequence.record": "ACGTGGTTGA", "switch fluorescence ratio": 1.05}
{"sequence.record": "TATACAGCGA", "switch fluorescence ratio": 1.08}
{"sequence.record": "AATGGGGCTT", "switch fluorescence ratio": 0.995}
{"sequence.record": "TGAGGAAAAG", "switch fluorescence ratio": 1.01}
{"sequence.record": "TAGATGGTAG", "switch fluorescence ratio": 0.973}
{"sequence.record": "TCTGCTTGAG", "switch fluorescence ratio": 1.03}
{"sequence.record": "TACTGGGGCG", "switch fluorescence ratio": 0.997}
{"sequence.record": "GGGAGGGTGT", "switch fluorescence ratio": 1.09}
{"sequence.record": "GCGGTATGGG", "switch fluorescence ratio": 0.965}
{"sequence.record": "AAGTTTAATA", "switch fluorescence ratio": 0.943}
{"sequence.record": "TCGTAGTGGG", "switch fluorescence ratio": 1.01}
{"sequence.record": "GTTTGCTGGG", "switch fluorescence ratio": 0.983}
{"sequence.record": "TGTTAGAGGC", "switch fluorescence ratio": 1.03}
{"sequence.record": "GAAAGGGATG", "switch fluorescence ratio": 1.03}
{"sequence.record": "GGGGCACATT", "switch fluorescence ratio": 0.988}
{"sequence.record": "GGGGAGTAGG", "switch fluorescence ratio": 1.03}
